Cited source: the supplement of paper PMC10307832

- System: EBC-1
- assay-comment: relative viability (nuclei count vs DMSO), 5 days (fraction); higher = more cells survive
- setup-conditions: first compound 50 µM
Collected relative viability values appear next to each entry.
In your answer, state the number alone without any accompanying words.

# input Consider the molecule O=C(O)CCCCC(CCSCc1ccccc1)SCc1ccccc1 (centres undefined) [CPI-613] + CS(=O)(=O)N1CCN(Cc2cc3nc(-c4cccc5[nH]ncc45)nc(N4CCOCC4)c3s2)CC1 [Pictilisib] (partner 1 µM) and give its measured relative viability.
# output 0.362

# input What do you get for O=C(O)CCCCC(CCSCc1ccccc1)SCc1ccccc1 (centres undefined) [CPI-613] + CS(=O)(=O)CCNCc1ccc(-c2ccc3ncnc(Nc4ccc(OCc5cccc(F)c5)c(Cl)c4)c3c2)o1 [Lapatinib] (partner 2 µM) ?
# output 0.212

# input What would you report for O=C(O)CCCCC(CCSCc1ccccc1)SCc1ccccc1 (centres undefined) [CPI-613] + C[C@]1(O)C[C@@H](c2nc(-c3ccc4ccc(-c5ccccc5)nc4c3)c3c(N)nccn32)C1 [Linsitinib] (partner 1 µM) ?
# output 0.593

More entries:
# input If you can, please state the reported relative viability value of O=C(O)CCCCC(CCSCc1ccccc1)SCc1ccccc1 (centres undefined) [CPI-613] + Cc1nc(NC(=O)N2CCC[C@H]2C(N)=O)sc1-c1ccnc(C(C)(C)C(F)(F)F)c1 [Alpelisib] (partner 2 µM) .
# output 0.678

====

- System: NCI-H3122
- assay-comment: relative viability (nuclei count vs DMSO), 5 days (fraction); higher = more cells survive
- setup-conditions: first compound 0.253 µM
The reader will find reported relative viability values listed item by item below.
// print number alone

Take a look at these entries with their results.
# input Can you look up the measured relative viability of O=c1[nH]c2ccccc2n1C1CCN(CCCC(c2ccc(F)cc2)c2ccc(F)cc2)CC1 [Pimozide] + CCNC(=O)c1noc(-c2cc(C(C)C)c(O)cc2O)c1-c1ccc(CN2CCOCC2)cc1 [Luminespib] (partner 0.01 µM) for me?
# output 0.0961

# input Another molecule to look at: O=c1[nH]c2ccccc2n1C1CCN(CCCC(c2ccc(F)cc2)c2ccc(F)cc2)CC1 [Pimozide] + Cc1nc(Nc2ncc(C(=O)Nc3c(C)cccc3Cl)s2)cc(N2CCN(CCO)CC2)n1 [Dasatinib] (partner 0.075 µM)
# output 0.861

# input Thanks! And O=c1[nH]c2ccccc2n1C1CCN(CCCC(c2ccc(F)cc2)c2ccc(F)cc2)CC1 [Pimozide] + O=C(c1cc(Cc2n[nH]c(=O)c3ccccc23)ccc1F)N1CCN(C(=O)C2CC2)CC1 [Olaparib] (partner 8 µM) ?
# output 0.684

Now, please, on to the next molecule.
# input Need relative viability, item O=c1[nH]c2ccccc2n1C1CCN(CCCC(c2ccc(F)cc2)c2ccc(F)cc2)CC1 [Pimozide] + Cc1cc(Nc2cc(N3CCN(C)CC3)nc(Sc3ccc(NC(=O)C4CC4)cc3)n2)n[nH]1 [Tozasertib] (partner 0.1 µM)
# output 0.386

====

- Tested on: HOP-62
- assay-comment: relative viability (nuclei count vs DMSO), 5 days (fraction); higher = more cells survive
- setup-conditions: first compound 0.01581 µM
Labelling field: enter Condition met if recorded relative viability is less than 0.3. Enter Condition not met if it equals or exceeds that cut-off.

# input Problem: For the molecule Nc1ccn([C@@H]2O[C@H](CO)[C@@H](O)[C@@H]2O)c(=O)n1 [Cytarabine] + Cc1nc(NC(=O)N2CCC[C@H]2C(N)=O)sc1-c1ccnc(C(C)(C)C(F)(F)F)c1 [Alpelisib] (partner 2 µM) , is relative viability under 0.3?
# output Condition not met

# input Again, but for Nc1ccn([C@@H]2O[C@H](CO)[C@@H](O)[C@@H]2O)c(=O)n1 [Cytarabine] + CC1(C)CCC(c2ccc(Cl)cc2)=C(CN2CCN(c3ccc(C(=O)NS(=O)(=O)c4ccc(N[C@H](CCN5CCOCC5)CSc5ccccc5)c(S(=O)(=O)C(F)(F)F)c4)cc3)CC2)C1 [Navitoclax] (partner 0.5 µM)
# output Condition not met

# input # iterate: Nc1ccn([C@@H]2O[C@H](CO)[C@@H](O)[C@@H]2O)c(=O)n1 [Cytarabine] + COc1cc2c(Oc3ccc(NC(=O)C4(C(=O)Nc5ccc(F)cc5)CC4)cc3F)ccnc2cc1OCCCN1CCOCC1 [Foretinib] (partner 0.25 µM)
# output Condition not met

# input And COc1cc2nccc(Oc3ccc(NC(=O)Nc4cc(C)on4)c(Cl)c3)c2cc1OC [Tivozanib] + N=C(N)NC(=N)NCCc1ccccc1 [Phenformin] (partner 250 µM) ?
# output Condition not met

# input Same thing, different molecule: COc1cc2nccc(Oc3ccc(NC(=O)Nc4cc(C)on4)c(Cl)c3)c2cc1OC [Tivozanib] + Nc1ncn([C@H]2C[C@H](O)[C@@H](CO)O2)c(=O)n1 [Decitabine] (partner 2 µM)
# output Condition met

---
# input relative viability under 0.3? Item: COc1cc2nccc(Oc3ccc(NC(=O)Nc4cc(C)on4)c(Cl)c3)c2cc1OC [Tivozanib] + NC(=O)Nc1cc(-c2cccc(F)c2)sc1C(=O)N[C@H]1CCCNC1 [AZD7762] (partner 0.2 µM)
# output Condition not met

# input Then Nc1ccn([C@@H]2O[C@H](CO)[C@@H](O)[C@@H]2O)c(=O)n1 [Cytarabine] + Cc1cc(Nc2cc(N3CCN(C)CC3)nc(Sc3ccc(NC(=O)C4CC4)cc3)n2)n[nH]1 [Tozasertib] (partner 0.1 µM) ?
# output Condition met

# input Okay, and Nc1ccn([C@@H]2O[C@H](CO)[C@@H](O)[C@@H]2O)c(=O)n1 [Cytarabine] + O=C(c1cc(Cc2n[nH]c(=O)c3ccccc23)ccc1F)N1CCN(C(=O)C2CC2)CC1 [Olaparib] (partner 8 µM) ?
# output Condition not met
